Can you tell me pIC50 for the items I'm about to list?
- ASSAY_SYSTEM: D(2) dopamine receptor (Rattus norvegicus, UniProt P61169)
- Sequence (P61169 whole entry): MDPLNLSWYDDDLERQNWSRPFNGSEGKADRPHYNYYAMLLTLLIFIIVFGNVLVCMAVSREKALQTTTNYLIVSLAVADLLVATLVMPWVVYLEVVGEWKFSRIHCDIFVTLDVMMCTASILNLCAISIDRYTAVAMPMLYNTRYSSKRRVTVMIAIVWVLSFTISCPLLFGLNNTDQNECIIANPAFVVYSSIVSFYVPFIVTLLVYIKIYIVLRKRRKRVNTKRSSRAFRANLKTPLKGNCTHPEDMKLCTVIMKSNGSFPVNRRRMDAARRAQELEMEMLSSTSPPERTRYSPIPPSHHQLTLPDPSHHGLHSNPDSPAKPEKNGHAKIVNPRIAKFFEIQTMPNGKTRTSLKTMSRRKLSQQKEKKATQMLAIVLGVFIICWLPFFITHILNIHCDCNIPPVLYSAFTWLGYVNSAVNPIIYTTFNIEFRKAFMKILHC
- TEST_PROTOCOL: Inhibitory activity against dopamine receptor D2 in rat corpus striatum using [3H]apomorphine as radioligand
- Type: tissue-based
The read-out pIC50 is expressed as -log10 of concentration in moles per litre.

*Q* # lookup: pIC50 of CCCN(CCCSC)C1CCc2n[nH]cc2C1 (stereo not drawn)
*A* 6.51

*Q* # get_value(readout='pIC50', item= CSCCCNC1CCc2n[nH]cc2C1 (stereo not drawn) )
*A* 5.69

*Q* Quick check: pIC50 of c1csc(CCNC2CCc3n[nH]cc3C2)c1 (stereo not drawn) ?
*A* 5.04

*Q* Which pIC50 reading was recorded for the compound CCCN(CCc1cccs1)C1CCc2n[nH]cc2C1 (stereo not drawn) ?
*A* 6.80

*Q* Dear colleague, I am looking for the recorded pIC50 of the following compound: CCCNC1CCc2n[nH]cc2C1 (stereo not drawn)
*A* 7.19

*Q* Recorded pIC50 for CCNC1CCc2n[nH]cc2C1 (stereo not drawn) , please?
*A* 6.21

*Q* Request the reported pIC50 associated with CCCN(CCc1ccccc1)C1CCc2n[nH]cc2C1 (stereo not drawn)
*A* 6.85

* * *

- Test system: Rattus norvegicus
- TEST_PROTOCOL: Reduction of serum prolactin concentration in rats, 5 mg/Kg administered intraperitoneally
- Format: functional
Give measured log10(Turnover) for each item. Keep answers brief.
Friendly reminder: values = log10 of Turnover, unit ng/mL.

*Q* What log10(Turnover) value was documented for this molecule, CCCN[C@@H]1Cc2c[nH]nc2C[C@H]1CCCO ?
*A* 0.64

*Q* Please report the recorded log10(Turnover) for c1csc(CCNC2CCc3n[nH]cc3C2)c1 (configuration not stated) .
*A* 0.90

*Q* Query: log10(Turnover); subject: CCCCNC1CCc2n[nH]cc2C1 (configuration not stated)
*A* 1.13

*Q* I'd like to know its log10(Turnover). The molecule in question is CCCN(CCc1ccccc1)C1CCc2n[nH]cc2C1 (configuration not stated)
*A* 0.15

*Q* For CSCCCNC1CCc2n[nH]cc2C1 (configuration not stated) , what is its reported log10(Turnover)?
*A* 1.00

*Q* Data request, read-out log10(Turnover), for CCCNC1CCc2nc(N)sc2C1 (configuration not stated)
*A* 0.57

*Q* // query log10(Turnover) value for entry CCNC1CCc2n[nH]cc2C1 (configuration not stated)
*A* 0.20

*Q* May I ask what log10(Turnover) has been recorded for CCCN(C)C1CCc2n[nH]cc2C1 (configuration not stated) ?
*A* 0.30

*Q* Report log10(Turnover) for CCCN(CCc1cccs1)C1CCc2n[nH]cc2C1 (configuration not stated) please.
*A* 0.45

*Q* Param item = CCCN[C@@H]1Cc2c[nH]nc2C[C@H]1CCCSC ; retrieve measured log10(Turnover).
*A* 0.89

*Q* Entry c1ccc(CCNC2CCc3n[nH]cc3C2)cc1 (configuration not stated) has what log10(Turnover)?
*A* 0.78

*Q* May I ask what log10(Turnover) has been recorded for CCCN[C@@H]1Cc2c[nH]nc2C[C@H]1CCC ?
*A* 0.71

*Q* Would you kindly share the measured log10(Turnover) for CCCCN(CCC)C1CCc2n[nH]cc2C1 (configuration not stated) ?
*A* 0.28

*Q* Using the record for CCCN1C[C@H](CSC)C[C@@H]2c3cccc4[nH]cc(c34)C[C@H]21 [PERGOLIDE] , report its log10(Turnover).
*A* 0.30

*Q* Entry under review: CCCN[C@@H]1Cc2c[nH]nc2C[C@H]1CCCOC . Reported log10(Turnover)?
*A* 0.66

*Q* Which log10(Turnover) value belongs to CCCNC1CCc2n[nH]cc2C1 (configuration not stated) ?
*A* 0.38

*Q* Look up log10(Turnover): CCCN(CCCSC)C1CCc2n[nH]cc2C1 (configuration not stated)
*A* 0.04
